Test: mammalian cell cytotoxicity, propidium iodide flow cytometry
Format: cell-based, mice
Details: C57BL/6, mouse, primary spleen cells, mouse spleen cells, 24 h; read-out: Cytotoxic IC50
propertyLabel: IC50 at 24 h (µM)
Respond numerically; units are µM and should not be typed.

Request: Return reported IC50 at 24 h; argument: `NC(=O)c1ccsc1NC(=O)CSc1nnc(CN2CCCCC2)n1Cc1ccccc1`
Response: 50

Alright, here's another molecule for you.
Request: I'd like to know its IC50 at 24 h. The molecule in question is `NC(=O)c1ccsc1NC(=O)COC(=O)[C@@H](Cc1ccccc1)NC(=O)OCc1ccccc1`
Response: 23

---

Biological target: cruzain (Trypanosoma cruzi)
Construct: Recombinant cruzain enzyme was expressed and purified as previously described
Sequence (P25779 123-337 limits assumed): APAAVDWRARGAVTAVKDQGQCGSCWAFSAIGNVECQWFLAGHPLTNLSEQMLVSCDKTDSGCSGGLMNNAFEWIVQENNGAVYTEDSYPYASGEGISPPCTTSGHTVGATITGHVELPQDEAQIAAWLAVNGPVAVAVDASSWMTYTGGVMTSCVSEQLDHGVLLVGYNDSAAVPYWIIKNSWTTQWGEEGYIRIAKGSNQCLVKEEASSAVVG
Test: cruzain affinity constant (Ki) and mechanism determination, Michaelis-Menten curves
Settings: pH 6.3, 0.01% Triton X-100, inhibitor 30, 50 and 70 µM
propertyLabel: pKi
Convention used: pKi is expressed as -log10 of the molar concentration.

Request: Lab note: need pKi with cruzain (Trypanosoma cruzi) for entry `NC(=O)c1ccsc1NC(=O)CSc1nnc(CN2CCCCC2)n1Cc1ccccc1` , please look it up.
Response: 4.73

---

Molecular target: cathepsin L (Homo sapiens)
Sequence (P07711 114-333): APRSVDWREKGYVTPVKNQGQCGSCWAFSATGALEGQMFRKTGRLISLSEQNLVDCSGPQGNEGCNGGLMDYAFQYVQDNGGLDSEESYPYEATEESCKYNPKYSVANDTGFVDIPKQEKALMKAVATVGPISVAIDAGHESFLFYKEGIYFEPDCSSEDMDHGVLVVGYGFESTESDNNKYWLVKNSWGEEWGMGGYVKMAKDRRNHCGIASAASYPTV
propertyLabel: pIC50
Note on units: pIC50 is unitless, being -log10 of a concentration expressed in mol/L.

Request: Record request: pIC50 value, item `NC(=O)c1ccsc1NC(=O)CSc1nnc(CN2CCCCC2)n1Cc1ccccc1`
Response: 4.45

---

Tested on: Spleen cells from C57BL/6 mice
Experiment: mammalian cell cytotoxicity, propidium iodide flow cytometry
Format: cell-based
Details: mouse spleen cells, 24 h; read-out: Cytotoxic IC50
propertyLabel: IC50 (µM)
Use µM as the unit, but write only the number.

Request: If you can, please state the reported IC50 value of NC(=O)c1ccsc1NC(=O)COC(=O)[C@@H](Cc1ccccc1)NC(=O)OCc1ccccc1 [Neq172] .
Response: 23.1

Then there is this compound:
Request: Given NC(=O)c1ccsc1NC(=O)CSc1nnc(CN2CCCCC2)n1Cc1ccccc1 [Neq42] , state its recorded IC50.
Response: 49.9

---

Test system: T. cruzi Tulahuen lacZ strain
Test: in vitro trypanocidal activity, infected LLC-MK2 cells, CPRG readout
Type: cell-based, Trypanosoma cruzi
Conditions: Trypanosoma cruzi, LLC-MK2, 96 h; Tulahuen lacZ strain, 4 days of culture; read-out: Trypanocidal activity IC50
pIC50: −log10 of the molar value.
Assign class by pIC50: not lower than 4 means y; lower than 4 means n.

# example entries with known answers
Request: Answer whether pIC50 of CC(Sc1nncn1-c1ccccc1)C(=O)Nc1sccc1C(N)=O (stereo not drawn) is greater than or equal to 4.
Response: n

Request: Say whether `NC(=O)c1ccsc1NC(=O)COC(=O)[C@@H](Cc1ccccc1)NC(=O)OCc1ccccc1` shows pIC50 of 4 or more.
Response: n

Request: Check if pIC50 >= 4 (inclusive). Item: `NC(=O)c1ccsc1NC(=O)CSc1nnc(CN2CCCCC2)n1Cc1ccccc1`
Response: y

Request: Does O=C(Cn1ccnc1[N+](=O)[O-])NCc1ccccc1 [Bz, N-benzyl-2-nitro-1-imidazolacetamide, reference compound] have a reported pIC50 of at least 4?
Response: y

Continuing:
Request: Test whether the molecule `Cc1nnc(SCC(=O)Nc2sccc2C(N)=O)n1Cc1ccccc1` records pIC50 of 4 or higher.
Response: n

Entry source: paper PMC3750009
